Property: light emission values; scope: individual compounds
Biological target: QuantiLum Luciferase (Photinus pyralis, UniProt P08659)
Construct: purchased Promega Corporation E170
Sequence (P08659 whole entry): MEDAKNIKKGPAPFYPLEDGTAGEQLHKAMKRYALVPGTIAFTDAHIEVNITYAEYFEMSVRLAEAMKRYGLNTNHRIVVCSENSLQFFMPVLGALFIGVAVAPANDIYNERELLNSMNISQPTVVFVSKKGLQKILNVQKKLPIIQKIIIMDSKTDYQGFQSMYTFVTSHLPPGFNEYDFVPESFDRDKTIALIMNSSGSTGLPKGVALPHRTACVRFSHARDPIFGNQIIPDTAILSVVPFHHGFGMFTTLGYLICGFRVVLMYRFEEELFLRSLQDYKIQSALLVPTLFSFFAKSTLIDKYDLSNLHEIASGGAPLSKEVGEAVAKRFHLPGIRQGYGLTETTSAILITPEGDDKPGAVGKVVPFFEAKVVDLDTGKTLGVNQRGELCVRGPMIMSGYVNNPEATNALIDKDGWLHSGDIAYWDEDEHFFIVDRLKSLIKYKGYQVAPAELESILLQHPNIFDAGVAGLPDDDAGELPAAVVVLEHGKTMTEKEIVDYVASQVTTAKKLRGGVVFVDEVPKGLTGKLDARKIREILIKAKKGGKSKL
Assay: Scaffolds: light emission of luciferin derivatives with QuantiLum luciferase alone, + Co A, + DTT, + Co A and DTT
Format: biochemical, firefly
Conditions: Derivative Conc. 50; Co A + DTT
Just the number, please.

Please review the entries below; each comes with its answer.
>>> reported_value("COc1ccc2nc(C3=N[C@@H](C(=O)O)CS3)sc2c1 [luciferin 6-methyl ether, D-luciferin 6' methyl ether, reference compound]")
3635
>>> reported_value("COC(=O)[C@H]1CSC(c2ccc3cc(Oc4ccc(C(F)(F)F)cc4[N+](=O)[O-])ccc3n2)=N1")
1729
>>> reported_value("O=C(O)[C@H]1CSC(c2ccc3cc(Oc4ccc(C(F)(F)F)cc4[N+](=O)[O-])ccc3n2)=N1")
20009
>>> reported_value("CCN(CC)c1ccc2nc(C3=NC(C(=O)O)CS3)sc2c1 (centres unmarked)")
1538668
>>> reported_value("CN(Cc1ccccc1)c1ccc2nc(C3=NC(C(=O)O)CS3)sc2c1 (centres unmarked)")
47965140
>>> reported_value("O=C(O)[C@H]1CSC(c2nc3ccc(OCc4ccccc4)cc3s2)=N1 [luciferin 6-benzyl ether, reference compound]")
98716

[ask] Given O=C(O)[C@H]1CSC(c2nc3ccc(OCCO)cc3s2)=N1 [2hydroxyethoxyluciferin ether] , respond with its light emission values.
[reply] 87170

[ask] Given NCCCOc1ccc2nc(C3=N[C@@H](C(=O)O)CS3)sc2c1 , respond with its light emission values.
[reply] 865209

* * *

Target: QuantiLum Luciferase (Photinus pyralis)
Construct: purchased Promega Corporation E170
Experiment: Scaffolds: light emission of luciferin derivatives with QuantiLum luciferase alone, + Co A, + DTT, + Co A and DTT
Type: biochemical, firefly
Details: Derivative Conc. 6.25; Alone
Property: light emission values; scope: individual molecules
Just the number, please.

>>> reported_value("CN(Cc1ccccc1)c1ccc2nc(C3=NC(C(=O)O)CS3)sc2c1 (stereo not shown)")
43052788
>>> reported_value("COc1ccc2nc(C3=N[C@@H](C(=O)O)CS3)sc2c1 [luciferin 6-methyl ether, D-luciferin 6' methyl ether, reference compound]")
1240
>>> reported_value("O=C(O)[C@H]1CSC(c2ccc3cc(Oc4ccc(C(F)(F)F)cc4[N+](=O)[O-])ccc3n2)=N1")
7682

Then this molecule:
[ask] Given NCCCOc1ccc2nc(C3=N[C@@H](C(=O)O)CS3)sc2c1 , respond with its light emission values.
[reply] 201597

* * *

Property: light emission values; scope: individual compounds
Biological target: QuantiLum Luciferase (Photinus pyralis)
Construct: purchased Promega Corporation E170
Experiment: Scaffolds: light emission of luciferin derivatives with QuantiLum luciferase alone, + Co A, + DTT, + Co A and DTT
Format: biochemical, firefly
Conditions: Derivative Conc. 3.13; Alone
Description: The DTT, Coenzyme A, and QuantiLum stock solutions are the same as those described herein. […] Reactions in these plates were initiated by addition of 50 µl of solution containing QuantiLum luciferase using a 12 channel micropipette. […] After addition of the enzyme solution to the last row on each plate, the plate was sealed and read on a Veritas luminometer.
Just the number, please.

Please review the entries below; each comes with its answer.
>>> reported_value("O=C(O)[C@H]1CSC(c2ccc3cc(Oc4ccc(C(F)(F)F)cc4[N+](=O)[O-])ccc3n2)=N1")
4913
>>> reported_value("NCCCOc1ccc2nc(C3=N[C@@H](C(=O)O)CS3)sc2c1")
131633
>>> reported_value("CN(Cc1ccccc1)c1ccc2nc(C3=NC(C(=O)O)CS3)sc2c1 (centres unmarked)")
34516960
>>> reported_value("O=C(O)[C@H]1CSC(c2nc3ccc(OCc4ccccc4)cc3s2)=N1 [luciferin 6-benzyl ether, reference compound]")
32994
>>> reported_value("CCN(CC)c1ccc2nc(C3=NC(C(=O)O)CS3)sc2c1 (centres unmarked)")
2259570
>>> reported_value("COc1ccc2nc(C3=N[C@@H](C(=O)O)CS3)sc2c1 [luciferin 6-methyl ether, D-luciferin 6' methyl ether, reference compound]")
1053
>>> reported_value("COC(=O)[C@H]1CSC(c2ccc3cc(Oc4ccc(C(F)(F)F)cc4[N+](=O)[O-])ccc3n2)=N1")
1537

[ask] Given O=C(O)[C@H]1CSC(c2nc3ccc(OCCO)cc3s2)=N1 [2hydroxyethoxyluciferin ether] , respond with its light emission values.
[reply] 10769
